The origin of these recorded values is patent US20230174484A1.

Target: human GPR39 receptor (Homo sapiens, UniProt O43194)
Construct: PC3 Cells, Expressing the Endogenous Human GPR39 Receptor; endogenous in cells
Sequence (O43194 whole entry): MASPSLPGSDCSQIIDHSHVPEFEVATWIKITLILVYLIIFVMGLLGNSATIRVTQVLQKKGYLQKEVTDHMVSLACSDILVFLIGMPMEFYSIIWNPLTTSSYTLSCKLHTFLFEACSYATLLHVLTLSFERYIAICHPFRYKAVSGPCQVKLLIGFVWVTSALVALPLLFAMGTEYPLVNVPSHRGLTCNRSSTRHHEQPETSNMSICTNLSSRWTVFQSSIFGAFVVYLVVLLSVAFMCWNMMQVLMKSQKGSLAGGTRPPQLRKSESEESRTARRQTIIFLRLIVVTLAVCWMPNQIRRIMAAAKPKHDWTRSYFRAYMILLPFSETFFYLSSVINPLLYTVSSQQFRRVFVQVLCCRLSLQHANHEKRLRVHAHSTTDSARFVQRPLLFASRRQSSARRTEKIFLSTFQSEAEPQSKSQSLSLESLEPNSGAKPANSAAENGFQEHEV
Experiment: Measurement of intracellular calcium response in PC3 cells (FLIPR), antagonism of the C3 agonist response
Details: functional pKi (modified Cheng-Prusoff), inhibition of the C3 (TC-G 1008) response at EC90, 30 μM ZnCl2, read-out: fpKi activity
pKi: −log10 of the molar value.
measuredQuantity: pKi

Solved entries:
# input I would be grateful if you could share the reported pKi for C[C@@H]1C[C@@H](C)CN(c2cc(NC(=O)C3CC3)ccc2-c2ncc3n2CCN(C)C3)C1 (relative stereo) [Example 104a] .
# output 6.00 to 6.50

# input Same thing, different molecule: O=C(Nc1ccc(C(=O)N2CCC(F)(F)CC2)c(N2CCCC2)c1)C1CC1 [Example 59]
# output 6.60 to 7.20

# input Same thing, different molecule: CN1CCN(C(=O)c2ccc(-c3nnc(C4CC4)[nH]3)cc2N2CCCC2)C(c2ccccc2)C1 (single isomer, unassigned) [Example 151b]
# output 5.20 to 5.90

# input Same thing, different molecule: CN1CCN(C(=O)c2ccc(NC(=O)C3CC3)cc2N2CCCC2)C(c2cncc(Cl)c2)C1 (racemic) [Example 172]
# output 6.60 to 7.20

# input Same thing, different molecule: CC1CC(C)CN(c2cc(NC(=O)C3CC3)ccc2-c2nnc(Sc3ccccc3)n2CCN(C)C)C1 (stereo not shown) [Example 115]
# output 6.00 to 6.50

More entries:
# input I would be grateful if you could share the reported pKi for CCCN1CCN(C(=O)c2ccc(NC(=O)C3CC3)cc2-n2ccc(C(F)(F)F)n2)CC1 [Example 158] .
# output ≥ 7.30

# input Same thing, different molecule: CN1CCN(C(=O)c2ccc(NC(=O)C3CC3)cc2N2CCCC2)C(c2cccs2)C1 (single isomer, unassigned) [Example 86a]
# output 5.20 to 5.90
